The values you see were collected from ChEMBL document CHEMBL1268988.

Please go through the items and note down their AUC.
# Method: AUC in rat at 3 mg/kg, po
# Type: ADME, organism-based
# Design: dose 3 mg/kg, route oral
# Measurement conditions: plasma
One number for each entry, in ng·h/mL.

Below, each entry is followed by its recorded AUC result.
Cc1nc2ccccc2n1C1C[C@H]2CC[C@@H](C1)N2CC[C@H](NC(=O)[C@H]1CC[S@+]([O-])CC1)c1cccc(F)c1 (some centres undefined) :: 2
Cc1nc2ccccc2n1C1C[C@H]2CC[C@@H](C1)N2CC[C@H](NC(=O)[C@H]1CC[S@@+]([O-])CC1)c1cccc(F)c1 (some centres undefined) :: 11

Now look at this one.
Task: What AUC value was documented for this molecule, Cc1nc2ccccc2n1C1C[C@H]2CC[C@@H](C1)N2CC[C@H](NC(=O)C1CCSCC1)c1cccc(F)c1 (some centres undefined) ?
Result: 10

====

# Method: Inhibition of HIV1 gp160 by cell-cell fusion inhibition assay
# Parameters: species or system Human immunodeficiency virus 1
Readout kind: IC50 (nM)
Give bare numbers, in nM.

Cc1nc2ccc(F)cc2n1C1C[C@H]2CC[C@@H](C1)N2CC[C@H](NC(=O)c1ccc[n+]([O-])c1)c1cccc(F)c1 (some centres undefined) :: 0.5
Cc1nc2ccncc2n1C1C[C@H]2CC[C@@H](C1)N2CC[C@H](NC(=O)C1CCS(=O)(=O)CC1)c1cccc(F)c1 (some centres undefined) :: 0.2
Cc1nc2ccccc2n1C1C[C@H]2CC[C@@H](C1)N2CC[C@H](NC(=O)C1CCSCC1)c1cccc(F)c1 (some centres undefined) :: 0.2
Cc1nc2ccccc2n1C1C[C@H]2CC[C@@H](C1)N2CC[C@H](NC(=O)C1CCS(=O)(=O)CC1)c1cccc(F)c1 (some centres undefined) :: 0.2
Cc1nc2cc(F)ccc2n1C1C[C@H]2CC[C@@H](C1)N2CC[C@H](NC(=O)c1cc[n+]([O-])cc1)c1cccc(F)c1 (some centres undefined) :: 0.1
Cc1nc2ccc(F)cc2n1C1C[C@H]2CC[C@@H](C1)N2CC[C@H](NC(=O)c1ccc([S+](C)[O-])cc1)c1cccc(F)c1 (some centres undefined) :: 1

I have 5 compounds here; please give me IC50 for each one.
1. Cc1nc2ccncc2n1C1C[C@H]2CC[C@@H](C1)N2CC[C@H](NC(=O)c1cc[n+]([O-])cc1)c1cccc(F)c1 (some centres undefined)
2. Cc1nc2ccccc2n1C1C[C@H]2CC[C@@H](C1)N2CC[C@H](NC(=O)c1cc[n+]([O-])cc1)c1cccc(F)c1 (some centres undefined)
3. Cc1nc2ccccc2n1C1C[C@H]2CC[C@@H](C1)N2CC[C@H](NC(=O)C1CC[S+]([O-])CC1)c1cccc(F)c1 (some centres undefined)
4. CCc1nc2ccccc2n1C1C[C@H]2CC[C@@H](C1)N2CC[C@H](NC(=O)C1CCS(=O)(=O)CC1)c1cccc(F)c1 (some centres undefined)
5. Cc1nc2ccncc2n1C1C[C@H]2CC[C@@H](C1)N2CCC(NC(=O)C1CC[S+]([O-])CC1)c1cccc(F)c1 (some centres undefined)

Result:
[4, 4, 0.2, 0.3, 1]

Below is a list of compounds. For each, state its recorded IC50.
1. Cc1nc2ccncc2n1C1C[C@H]2CC[C@@H](C1)N2CC[C@H](NC(=O)c1ccc(S(C)(=O)=O)cc1)c1cccc(F)c1 (some centres undefined)
2. Cc1nc2cc(F)ccc2n1C1C[C@H]2CC[C@@H](C1)N2CCC(NC(=O)C1CC[S+]([O-])CC1)c1cccc(F)c1 (some centres undefined)
3. Cc1nc2ccc(F)cc2n1C1C[C@H]2CC[C@@H](C1)N2CC[C@H](NC(=O)C1CCS(=O)(=O)CC1)c1cccc(F)c1 (some centres undefined)

Result:
1. 1
2. 0.4
3. 0.01
